assayed-system: T1, soluble FGFR4 receptor protein (human, UniProt P22455 144-369)
T1 sequence: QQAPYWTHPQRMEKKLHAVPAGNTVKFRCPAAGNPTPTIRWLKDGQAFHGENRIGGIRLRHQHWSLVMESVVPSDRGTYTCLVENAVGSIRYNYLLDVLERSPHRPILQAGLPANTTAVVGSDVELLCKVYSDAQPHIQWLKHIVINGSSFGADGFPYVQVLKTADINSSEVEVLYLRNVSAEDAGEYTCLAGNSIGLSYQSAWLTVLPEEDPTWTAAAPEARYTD
method-notes: BLI Octet RED96, antibody on anti-hIgG Fc tip
Entries and their koff values follow.
// return numeric value only (unit: s⁻¹, not printed)

The cases that follow already have their koff on record.
Vk12 combined with the VH of Ab15 (antibody, V domains shown, captured on anti-human IgG Fc tips) VH: EVQLLESGGGVVQPGRSLRLSCAASGFTFSSYAMHWVRQAPGKGLEWVAVISYDGSNKYYADSVKGRFTISRDNSKNTLSLQMNSLRVEDTAIYYCVRGAGRGYTYGPDGFDIWGQGTMVTVSS VL: DIVMTQSPLSLPVTPGEPASISCTSSRSLLHSDGKTYVYWYLQKPGQSPQLLIYELSNRFSGVPDRFSGSGSGTDFTLKISRVEAEDVGVYYCMQYIEAPLTFGGGTKVEIK
0.000925
Vk1 combined with the VH of Ab15 (antibody, V domains shown, captured on anti-human IgG Fc tips) VH: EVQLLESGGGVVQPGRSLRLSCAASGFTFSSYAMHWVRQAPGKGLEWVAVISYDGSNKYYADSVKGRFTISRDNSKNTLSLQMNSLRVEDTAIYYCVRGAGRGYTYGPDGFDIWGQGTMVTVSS VL: DIVMTQTPLSLSVTPGQPASISCTSSRSLLHSDGKTYLYWYLQKPGQPPQLLIYELSNRFSGVPDRFSGSGSRTDFTLKISRVEAEDVGVYYCMQYIEAPLTFGGGTKVEIK
0.00105

Now take the following binder into account.
Exercise: Need koff of Vk11 combined with the VH of Ab15 (antibody, V domains shown, captured on anti-human IgG Fc tips) VH: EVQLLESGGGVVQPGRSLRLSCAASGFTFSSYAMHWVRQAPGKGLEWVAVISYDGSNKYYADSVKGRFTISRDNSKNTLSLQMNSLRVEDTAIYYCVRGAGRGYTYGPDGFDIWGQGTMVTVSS VL: DIVMTQSPLSLPVTPGEPASISCTSSRSLLHSDGKTYVYWYLQKPGQSPQVLIYELSNRFSGVPDRFSGSGSGTDFTLKISRVEAEDVGVYYCMQYIEAPLTFGGGTKVEIK , thanks.
Key: 0.00106
